Where do these numbers come from? They come from ChEMBL document CHEMBL3414445.

Assay: Half life in Sprague-Dawley rat liver microsomes at 2 uM at pH 7.4 pre-incubated in presence of NADPH regenerating system measured 10 mins after microsomal reactions termination by LC-MS method
Assay type: ADME
measuredParameter: log10(half-life at 2 µM) (log10 of the value in min)

[
  {
    "moleculeSmiles": "COc1ccc2c(c1)O/C(=C\\c1ccc(OCCN3CCCCC3)cc1)C2=O",
    "measuredParameter": "log10(half-life at 2 µM)",
    "endpointResult": 1.04
  },
  {
    "moleculeSmiles": "C[C@]12CC[C@H]3[C@@H](CCC4=CC(=O)CC[C@@]43C)[C@@H]1CC[C@@H]2O",
    "measuredParameter": "log10(half-life at 2 µM)",
    "endpointResult": -0.32
  },
  {
    "moleculeSmiles": "CCN(CC)C(=O)Oc1ccc2c(c1)O/C(=C\\c1ccc(OCCN3CCCCC3)cc1)C2=O",
    "measuredParameter": "log10(half-life at 2 µM)",
    "endpointResult": 0.93
  },
  {
    "moleculeSmiles": "COc1ccc(/C=C2\\Oc3cc(OCCN4CCCCC4)ccc3C2=O)cc1",
    "measuredParameter": "log10(half-life at 2 µM)",
    "endpointResult": 1.05
  },
  {
    "moleculeSmiles": "COc1ccc(/C=C2\\Oc3cc(OC)ccc3C2=O)cc1",
    "measuredParameter": "log10(half-life at 2 µM)",
    "endpointResult": 0.90
  },
  {
    "moleculeSmiles": "COc1ccc2c(c1)O/C(=C\\c1ccc(OCCN3CCCC3)cc1)C2=O",
    "measuredParameter": "log10(half-life at 2 µM)",
    "endpointResult": 0.71
  },
  {
    "moleculeSmiles": "COc1ccc2c(c1)O/C(=C\\c1ccc(OCCN3CCCCC3)c(Cl)c1)C2=O",
    "measuredParameter": "log10(half-life at 2 µM)",
    "endpointResult": 1.13
  }
]

* * *

List of Retention_time values.

[
  {
    "moleculeSmiles": "COc1cc(/C=C2\\Oc3cc(OCCN4CCCCC4)ccc3C2=O)cc(OC)c1OC",
    "Retention_time": "3.7 min"
  },
  {
    "moleculeSmiles": "COc1ccc(/C=C2\\Oc3cc(OC)ccc3C2=O)cc1",
    "Retention_time": "3.9 min"
  },
  {
    "moleculeSmiles": "COc1ccc2c(c1)O/C(=C\\c1ccc(OCCN3CCCCC3)c(Cl)c1)C2=O",
    "Retention_time": "3.4 min"
  }
]

* * *

Test: Stability in Sprague-Dawley rat liver microsomes assessed as parent compound remaining at 2 uM measured 10 mins after microsomal reactions termination at pH 7.4 pre-incubated in presence of NADPH regenerating system by LC-MS method
Format: ADME
Settings: read-out: Stability
measuredParameter: remaining at 10 min, 2 µM

[
  {
    "moleculeSmiles": "COc1ccc(/C=C2\\Oc3cc(OC)ccc3C2=O)cc1",
    "measuredParameter": "remaining at 10 min, 2 µM",
    "endpointResult": "41.4%"
  },
  {
    "moleculeSmiles": "C[C@]12CC[C@H]3[C@@H](CCC4=CC(=O)CC[C@@]43C)[C@@H]1CC[C@@H]2O",
    "measuredParameter": "remaining at 10 min, 2 µM",
    "endpointResult": "< 0.001%"
  },
  {
    "moleculeSmiles": "CCN(CC)C(=O)Oc1ccc2c(c1)O/C(=C\\c1ccc(OCCN3CCCCC3)cc1)C2=O",
    "measuredParameter": "remaining at 10 min, 2 µM",
    "endpointResult": "44.3%"
  },
  {
    "moleculeSmiles": "COc1ccc2c(c1)O/C(=C\\c1ccc(OCCN3CCCC3)cc1)C2=O",
    "measuredParameter": "remaining at 10 min, 2 µM",
    "endpointResult": "25.3%"
  },
  {
    "moleculeSmiles": "COc1ccc2c(c1)O/C(=C\\c1ccc(OCCN3CCCCC3)cc1)C2=O",
    "measuredParameter": "remaining at 10 min, 2 µM",
    "endpointResult": "52.1%"
  },
  {
    "moleculeSmiles": "COc1ccc(/C=C2\\Oc3cc(OCCN4CCCCC4)ccc3C2=O)cc1",
    "measuredParameter": "remaining at 10 min, 2 µM",
    "endpointResult": "53.6%"
  },
  {
    "moleculeSmiles": "COc1ccc2c(c1)O/C(=C\\c1ccc(OCCN3CCCCC3)c(Cl)c1)C2=O",
    "measuredParameter": "remaining at 10 min, 2 µM",
    "endpointResult": "59.5%"
  }
]
